Molecular target: T1, human glucose-dependent insulinotropic polypeptide (GIP) receptor (human, UniProt P48546 22-466)
T1 sequence (looked up): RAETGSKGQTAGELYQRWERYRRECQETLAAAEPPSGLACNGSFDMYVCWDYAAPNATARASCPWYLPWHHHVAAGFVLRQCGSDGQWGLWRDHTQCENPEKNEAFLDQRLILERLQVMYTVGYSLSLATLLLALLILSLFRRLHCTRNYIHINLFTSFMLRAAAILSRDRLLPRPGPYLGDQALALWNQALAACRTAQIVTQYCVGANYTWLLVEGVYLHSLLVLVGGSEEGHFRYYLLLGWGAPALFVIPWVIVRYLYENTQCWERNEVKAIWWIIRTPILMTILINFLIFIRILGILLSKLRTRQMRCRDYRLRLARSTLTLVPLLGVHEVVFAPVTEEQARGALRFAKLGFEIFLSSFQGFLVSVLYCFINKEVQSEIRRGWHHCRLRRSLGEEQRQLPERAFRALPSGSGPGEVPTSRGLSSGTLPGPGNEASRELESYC
Experiment: cell-based or functional assay
*1 amine or outer side, *2 acyl side, *3 side chain or, on linkers, in order; H or OH if unused. Where no end group is shown, it is not given here. Side-chain parts run from the residue outwards. [ ]: non-standard residue; d: D form. The star is where a group is joined. αMePhe(2-F) = C[C@](N)(Cc1ccccc1F)C(=O)O; γGlu = O=C(O)[C@H](CCC(=O)[*:2])N[*:1]; C14 diacid = O=C(O)CCCCCCCCCCCCC(=O)*; εLys = N[C@@H](CCCCN[*:1])C(=O)[*:2]; αMeY = C[C@](N)(Cc1ccc(O)cc1)C(=O)O; αMeL = CC(C)C[C@](C)(N)C(=O)O; Orn = NCCC[C@H](N)C(=O)O; Aib = CC(C)(N)C(=O)O
For each entry below, report its cAMP EC50 value.
Numbers only, in nM.

YXEGTXTSDVSIXLDXKAQXEFIKXLIEGGPSSGAPPPS (Aib2, αMeF6, αMeL13, Orn16, K17(Z), Aib20, K24(Z), αMeY25, C-terminal NH2; Z = AEEA2-(γ-Glu)-CO-(CH2)12-CO2H) [Example 181]    0.154
YXEGTXTSDXSIXLDXIAQXKFIXXLIEGGPSSGAPPPSK (Aib2, αMeF(2F)6, 2Nal10, αMeL13, Orn16, Aib20, K21(Z), D-Glu24, αMeY25, K40(Z), C-terminal NH2; Z = AEEA2-(γ-Glu)-CO-(CH2)12-CO2H) [Example 254]    0.0273
YXEGTXTSDXXIXLDXKAQXEFIXXLIEGGKSSGAPPPS (Aib2, αMeF(2F)6, 4Pal10, Tle11, αMeL13, Orn16, K17(Z), Aib20, D-Glu24, αMeY25, K31(Z), C-terminal NH2; Z = AEEA2-(γ-Glu)-CO-(CH2)12-CO2H) [Example 202]    0.057

Hi! Can you tell me cAMP EC50 for each of these binders?
1. Y[Aib]EGT[αMePhe(2-F)]TSDV[Aib]I[αMeL]LD[Orn]K([εLys-εLys-γGlu-C14 diacid])AQ[Aib]EFIK([εLys-εLys-γGlu-C14 diacid])[αMeY]LIEGGPSSGAPPPS-NH2 [Example 168]
2. YXEGTXTSDXSIXLDXIAQXEFIKXLIKGGPSSGAPPPS (Aib2, αMeF(2F)6, 4Pal10, αMeL13, Orn16, Aib20, K24(Z), αMeY25, K28(Z), C-terminal NH2; Z = AEEA3-(γ-Glu)-CO-(CH2)12-CO2H) [Example 226]

Response line:
0.0482
0.0232
